- Tested on: A549/ATCC NSCLC
- procedure-summary: NCI-60 one-dose screen, 48 h
- condition-details: 10 µM
- Method: Growth inhibition of the A549/ATCC human Non-Small Cell Lung tumor cell line is measured as a screen for anti-cancer activity. Cells are grown in 96 well plates and exposed to the test compound for 48 hours. Compounds are tested at a single concentration, which is 10^-5 M for most compounds. The reported endpoint is percent growth (GI% or GIPRCNT), where numbers from 0 - 100% represent growth inhibition, and numbers from -100% - 0 represent cell death. […]
This is part of a sample that, as a whole, favours compounds with a hit. Of some 83,000 tested, about 20% had one in any assay. The source made the active and inactive calls. The calls were made as follows: active = growth percent below 10; inactive = the rest.
Outcome codes: yes (1) for active, no (0) for inactive

INSERT INTO assay_data (molecule, measurement_target, answer_label) VALUES
  ('Nc1ccc(-c2cccs2)cc1NC(=O)c1ccc(CCCC(=O)Nc2ccc(C3CC3N)cc2)cc1 (configuration not stated)', 'A549/ATCC NSCLC', 'no (0)'),
  ('O=C(CCn1cnc2c(cc(-c3ccccc3)n2-c2ccccc2)c1=O)Nc1ccc(F)cc1', 'A549/ATCC NSCLC', 'no (0)'),
  ('CCCCCCCCCCCCCCCCCC[n+]1ccc2c(C)c3c(c(C)c2c1)c1cc(O)ccc1n3CC', 'A549/ATCC NSCLC', 'no (0)'),
  ('CN(C)CCCOc1ccc(NC2=C(Cl)C(=O)C(Nc3ccc(OCCCN(C)C)cc3)=C(Cl)C2=O)cc1', 'A549/ATCC NSCLC', 'yes (1)'),
  ('COc1ccc(-c2nn(-c3cccc(Cl)c3)cc2C=C(C#N)C#N)cc1', 'A549/ATCC NSCLC', 'no (0)'),
  ('CC(C)N(CCOc1cccc(-c2nc3sccn3c2-c2ccnc(S(C)(=O)=O)n2)c1)C(C)C', 'A549/ATCC NSCLC', 'no (0)'),
  ('COc1cc(-c2nn(-c3cccc(NC(=O)CCN4CCN(Cc5ccccc5)CC4)c3)cc2-c2ccncc2)ccc1Cl', 'A549/ATCC NSCLC', 'no (0)');
